meta.source: PubChem BioAssay

- TARGET OR SYSTEM: Voltage-gated potassium channel subunit beta-2 (Rattus norvegicus)
- ASSAY NAME: KvBeta enzyme negative modulators, primary screen, biochemical, NADPH fluorescence (AID 622);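 note: slope of raw intensity against log time taken from 70 to 1610 s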
- TEST PARAMETERS: recombinant KvBeta, 4-cyanobenzaldehyde reduction, at 10 µM, active compounds read high

[
  {
    "COMPOUND": "COc1cccc(NC(=O)c2cc(C(=O)Nc3cccc(OC)c3)n(C)n2)c1",
    "fluorescence slope": -0.504
  },
  {
    "COMPOUND": "Cc1c(C2CC(=O)N(c3ccccc3)C2=O)[nH]n(-c2ccccc2)c1=O (centres undefined)",
    "fluorescence slope": -0.488
  },
  {
    "COMPOUND": "CCOc1cc2[nH]c(=O)n(CCCCC(=O)NCc3ccco3)c(=O)c2cc1OCC",
    "fluorescence slope": -0.508
  },
  {
    "COMPOUND": "C=CCn1c(-c2ccc(OC)cc2)nc2ccccc21",
    "fluorescence slope": -0.488
  }
]
